measured parameter: melting point

Sample records with melting point:
                              sample_smiles        reading
0       Cc1ccc(S(=O)(=O)NCC(=O)c2ccccc2)cc1  148 to 149 °C
1  Cc1c(NC(=O)c2ccc(OCc3ccc(Cl)cc3)cc2)ccc2cc(CN3CCCC3)cnc12  167 to 168 °C
2   O=[N+]([O-])c1cnc2ccc(Cl)cc2c1Nc1ccccc1  174 to 175 °C

input: Query melting point for "Oc1ccc(CCCCn2ccnc2)cc1"
output: 124 to 125 °C

###

# key: entry, value: melting point

Sample records with melting point:
>>> print(df.to_string())
                             sample_smiles        reading
0  CNS(=O)(=O)c1cc(C(=O)O)cc(N)c1Oc1ccccc1         283 °C
1        CCc1nn(C2CCCCC2)c2cc(C(=O)O)ccc12  196 to 197 °C

input: Query melting point for "O=C(CS(=O)(=O)c1ccccc1)NNC(=O)N1Cc2ccccc2Oc2ccc(Cl)cc21"
output: 180 to 183 °C
